# System: Caco-2
# PROCEDURE TEXT: cell viability relative to DMSO; higher = less toxic
# STATED CONDITIONS: 72 h; 10000 nM
VALUE KIND: cell viability (%)
Your answer should be a plain number; it is taken to be in %.

Prompt: Looking for the measured cell viability of COC(=O)c1ccccc1NC(=O)c1ccc(F)cc1 [EXO-1] , can you help?
Response: 100

Prompt: # iterate: "O=C(O)c1cc(/N=N/c2ccc(O)c(C(=O)O)c2)ccc1O"
Response: 91.9

Prompt: # iterate: "CCN1CCCC1=O"
Response: 95.2

Prompt: # iterate: CCOc1ccccc1OCC1CNCCO1 (stereo not given)
Response: 95.6

Prompt: # iterate: "Oc1nc(O)c2nc(O)[nH]c2n1"
Response: 95.9

Prompt: # iterate: "CC1=C(/C=C/C(C)=C/C=C/C(C)=C/C=O)C(C)(C)CCC1"
Response: 90.4

Prompt: # iterate: "C[C@@H]1Cc2c([nH]c3ccccc23)[C@@H](c2c(F)cc(/C=C/C(=O)O)cc2F)N1CC(C)(C)F"
Response: 93.5

Prompt: # iterate: CC1(C)[C@H]2CC[C@]1(C)[C@@H](O)[C@H]2O [cis-exo-camphanediol-2,3]
Response: 95.5

Prompt: # iterate: CC1Sc2c(C(=O)O)c(=O)c3cc(F)c(N4CCNCC4)cc3n21 (stereo not given)
Response: 104

Prompt: # iterate: "c1ccc2nc(C3=NCCN3)cnc2c1"
Response: 100

---

# System: HepG2
# PROCEDURE TEXT: drug sensitivity score (DSS) for viability; higher = more toxic; extreme values may be limits of the assay
# STATED CONDITIONS: 72 h
Record form. Attribute: drug sensitivity score. Fill in for each entry.
// keep it numeric: no unit symbol after the value

Prompt: Looking for the measured drug sensitivity score of "C[N+](C)(C)NCCC(=O)O" , can you help?
Response: 0

Prompt: # iterate: "Oc1c(I)cc(I)c(O)c1I"
Response: 0

Prompt: # iterate: "CCOC(=O)c1c[nH]cn1"
Response: 0

Prompt: # iterate: COC(=O)c1ccccc1NC(=O)c1ccc(F)cc1 [EXO-1]
Response: 0

Prompt: # iterate: "C=C1/C(=C\C=C2/CCC[C@]3(C)[C@@H]([C@H](C)OCCC(C)(C)O)CC[C@@H]23)C[C@@H](O)C[C@@H]1O"
Response: 0

Prompt: # iterate: "CN[C@@H](C)C(=O)N[C@H](C(=O)N1CCC[C@H]1C(=O)Nc1sc(-c2ncco2)nc1-c1ccccc1)C1CCCCC1"
Response: 0

Prompt: # iterate: NCC1OC(C23CC4CC(CC(C4)C2)C3)Cc2c1ccc(O)c2O (centres undefined)
Response: 4

Prompt: # iterate: "CC#CC(=O)N1CCC[C@H]1c1nc(-c2ccc(C(=O)Nc3ccccn3)cc2)c2c(N)nccn12"
Response: 0

Prompt: # iterate: "CC(C)n1nc(-c2ccc3oc(N)nc3c2)c2c(N)ncnc21"
Response: 24.6

Prompt: # iterate: "CCCCCCCCCCCCCCCCNc1ccc(C(=O)O)cc1"
Response: 0

Prompt: # iterate: OC(c1ccccc1)C1CCN(CCc2ccccc2)CC1 (centres undefined)
Response: 0

Prompt: # iterate: COc1ccc(CCN(C)CCCC(C#N)(c2cc(OC)c(OC)c(OC)c2)C(C)C)cc1OC (centres undefined)
Response: 0

Prompt: # iterate: "Cc1c(C(=O)Nc2ccc(N3C[C@@H](C)O[C@@H](C)C3)nc2)cccc1-c1ccc(OC(F)(F)F)cc1"
Response: 1.4

Prompt: # iterate: "O=c1oc2c(O)c(O)cc3c(=O)oc4c(O)c(O)cc1c4c23"
Response: 0

Prompt: # iterate: "Nc1nccs1"
Response: 0

Prompt: # iterate: CCOc1ccc2nc(S(N)(=O)=O)sc2c1 [ethoxzolamide]
Response: 0

Prompt: # iterate: "O=C(O)CCc1nc(-c2ccccc2)c(-c2ccccc2)o1"
Response: 0

Prompt: # iterate: "Cn1c(NCCN(CCO)CCCc2ccc([N+](=O)[O-])cc2)cc(=O)n(C)c1=O"
Response: 0

Prompt: # iterate: COc1cc([C@@H]2c3cc4c(cc3[C@@H](O[C@@H]3O[C@@H]5CO[C@@H](c6cccs6)O[C@H]5[C@H](O)[C@H]3O)[C@H]3COC(=O)[C@H]23)OCO4)cc(OC)c1O [teniposide]
Response: 21.5
